target: CDK2/CycA2 (Homo sapiens, UniProt P24941); test: Kinase profiling; assay type: biochemical
PROPERTY_NAME: pIC50
Scale explanation: pIC50 corresponds to minus log10 of a concentration expressed in moles per litre.

Qu. Which pIC50 is listed for O=c1ccc2cnc(Nc3ccc(N4CCC(CCCO)CC4)cc3)nc2n1C1CC2CCC1C2 (stereo not shown) [PD-0183812, reference compound] ?
Ans. 6.47

----------
Form field: IC50 (one value per entry).
target: CDK9/CycK (Homo sapiens, UniProt P50750); assay: Kinase profiling; conditions: 10 semi-logarithmic dilutions from 50 μM, singlicate
Sequence (P50750 whole entry): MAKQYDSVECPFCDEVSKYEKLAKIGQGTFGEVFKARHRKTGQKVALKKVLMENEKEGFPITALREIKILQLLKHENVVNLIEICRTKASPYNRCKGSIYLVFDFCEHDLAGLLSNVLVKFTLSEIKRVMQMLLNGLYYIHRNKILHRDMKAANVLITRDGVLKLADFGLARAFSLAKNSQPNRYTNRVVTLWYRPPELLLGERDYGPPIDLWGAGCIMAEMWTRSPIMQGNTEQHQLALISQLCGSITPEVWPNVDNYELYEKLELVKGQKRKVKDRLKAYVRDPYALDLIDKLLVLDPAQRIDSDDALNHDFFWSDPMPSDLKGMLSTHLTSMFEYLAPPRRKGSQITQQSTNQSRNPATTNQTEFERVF
Sequence (O75909 whole entry partner): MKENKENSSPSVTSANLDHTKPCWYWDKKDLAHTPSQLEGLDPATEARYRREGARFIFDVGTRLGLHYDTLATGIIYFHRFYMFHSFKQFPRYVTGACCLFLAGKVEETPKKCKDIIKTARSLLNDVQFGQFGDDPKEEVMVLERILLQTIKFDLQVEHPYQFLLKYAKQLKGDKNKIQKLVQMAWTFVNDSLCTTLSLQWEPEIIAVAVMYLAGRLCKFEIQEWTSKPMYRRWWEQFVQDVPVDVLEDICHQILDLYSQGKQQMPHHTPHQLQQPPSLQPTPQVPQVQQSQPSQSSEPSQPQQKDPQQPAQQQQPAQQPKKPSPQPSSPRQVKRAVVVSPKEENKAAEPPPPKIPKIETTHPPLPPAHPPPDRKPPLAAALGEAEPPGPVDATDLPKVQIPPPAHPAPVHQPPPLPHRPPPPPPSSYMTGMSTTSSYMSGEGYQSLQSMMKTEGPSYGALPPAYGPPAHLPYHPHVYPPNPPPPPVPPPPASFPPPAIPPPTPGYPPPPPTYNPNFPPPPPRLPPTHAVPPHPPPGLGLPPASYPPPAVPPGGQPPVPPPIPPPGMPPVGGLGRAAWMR
Provide the measurement as a number trailed by its unit.

Answered examples (6):
CC(O)CCN1CCN(c2ccc(Nc3ncc4ccc(=O)n([C@@H]5CC6CCC5C6)c4n3)cc2)CC1 (stereo partly shown) : 10.1 nM
O=c1ccc2cnc(Nc3ccc(N4CCC(OCC5(CO)COC5)CC4)cc3)nc2n1[C@@H]1CC2CCC1C2 (stereo partly shown) : 46.9 nM
O=c1ccc2cnc(Nc3ccc(N4CCC(CCCO)CC4)c(F)c3)nc2n1[C@@H]1CC2CCC1C2 (stereo partly shown) : 456 nM
O=c1ccc2cnc(Nc3ccc(N4CCC(CCCO)CC4)cc3)nc2n1C1CC2CCC1C2 (stereo not shown) [PD-0183812, reference compound] : 174 nM
CC(=O)c1c(C)c2cnc(Nc3ccc(N4CCNCC4)cc3)nc2n([C@@H]2CC3CCC2C3)c1=O (stereo partly shown) : 12 nM
CC(=O)c1c(C)c2cnc(Nc3ccc(N4CCC(CCCO)CC4)cc3)nc2n([C@@H]2CC3CCC2C3)c1=O (stereo partly shown) : 67.5 nM

Qu. I am curious: what IC50 value has been reported for CC(O)CCC1CCN(c2ccc(Nc3ncc4ccc(=O)n([C@@H]5CC6CCC5C6)c4n3)cc2)CC1 (stereo partly shown) ?
Ans. 141 nM
